- System: Stellaria media
- Assay Summary: Herbicidal post-emergence action (greenhouse pots), STEME
- Format: in vivo
- Test Settings: 1280 g/ha, visual rating about 3 weeks after treatment vs untreated controls
Assay Readout: herbicidal activity STEME (%)
Note: unit % is implicit; provide only the numeric part.

{"Test Smiles": "N#Cc1ccc(Oc2c(C#N)cccc2Nc2ncc(Cl)cn2)cc1", "Quantitative Result": 100}

Looking up N#Cc1cccc(Nc2ncccn2)c1Oc1ccc(Cl)cc1 , I found its herbicidal activity STEME recorded as 90

Looking up N#Cc1cccc(Nc2ncc(F)cn2)c1Oc1cccc(C(F)(F)F)c1 , I found its herbicidal activity STEME recorded as 100

Looking up N#Cc1cccc(Nc2ncc(OC(F)F)cn2)c1Oc1ccc(F)cc1 , I found its herbicidal activity STEME recorded as 100

Looking up Cc1cnc(Nc2cccc(C#N)c2Oc2ccc(F)cc2)nc1 , I found its herbicidal activity STEME recorded as 100

Looking up Cc1cccc(Nc2ncc(Cl)cn2)c1Oc1ccc(F)cc1 , I found its herbicidal activity STEME recorded as 100

Looking up N#Cc1cccc(Nc2ncc(F)cn2)c1Oc1ccc(Cl)cc1F , I found its herbicidal activity STEME recorded as 100

Looking up N#Cc1cccc(Nc2ncc([N+](=O)[O-])cn2)c1Oc1ccc(F)cc1 , I found its herbicidal activity STEME recorded as 100

Looking up N#Cc1cccc(Nc2ncccn2)c1Oc1ccc(F)cc1Cl , I found its herbicidal activity STEME recorded as 100
